target: human ether-à-go-go-related gene (hERG) potassium channel (human, UniProt Q12809); test: primary screen, population patch clamp on CHO cells stably expressing hERG; higher = less effect of the substance
Sequence (Q12809 whole entry, looked up): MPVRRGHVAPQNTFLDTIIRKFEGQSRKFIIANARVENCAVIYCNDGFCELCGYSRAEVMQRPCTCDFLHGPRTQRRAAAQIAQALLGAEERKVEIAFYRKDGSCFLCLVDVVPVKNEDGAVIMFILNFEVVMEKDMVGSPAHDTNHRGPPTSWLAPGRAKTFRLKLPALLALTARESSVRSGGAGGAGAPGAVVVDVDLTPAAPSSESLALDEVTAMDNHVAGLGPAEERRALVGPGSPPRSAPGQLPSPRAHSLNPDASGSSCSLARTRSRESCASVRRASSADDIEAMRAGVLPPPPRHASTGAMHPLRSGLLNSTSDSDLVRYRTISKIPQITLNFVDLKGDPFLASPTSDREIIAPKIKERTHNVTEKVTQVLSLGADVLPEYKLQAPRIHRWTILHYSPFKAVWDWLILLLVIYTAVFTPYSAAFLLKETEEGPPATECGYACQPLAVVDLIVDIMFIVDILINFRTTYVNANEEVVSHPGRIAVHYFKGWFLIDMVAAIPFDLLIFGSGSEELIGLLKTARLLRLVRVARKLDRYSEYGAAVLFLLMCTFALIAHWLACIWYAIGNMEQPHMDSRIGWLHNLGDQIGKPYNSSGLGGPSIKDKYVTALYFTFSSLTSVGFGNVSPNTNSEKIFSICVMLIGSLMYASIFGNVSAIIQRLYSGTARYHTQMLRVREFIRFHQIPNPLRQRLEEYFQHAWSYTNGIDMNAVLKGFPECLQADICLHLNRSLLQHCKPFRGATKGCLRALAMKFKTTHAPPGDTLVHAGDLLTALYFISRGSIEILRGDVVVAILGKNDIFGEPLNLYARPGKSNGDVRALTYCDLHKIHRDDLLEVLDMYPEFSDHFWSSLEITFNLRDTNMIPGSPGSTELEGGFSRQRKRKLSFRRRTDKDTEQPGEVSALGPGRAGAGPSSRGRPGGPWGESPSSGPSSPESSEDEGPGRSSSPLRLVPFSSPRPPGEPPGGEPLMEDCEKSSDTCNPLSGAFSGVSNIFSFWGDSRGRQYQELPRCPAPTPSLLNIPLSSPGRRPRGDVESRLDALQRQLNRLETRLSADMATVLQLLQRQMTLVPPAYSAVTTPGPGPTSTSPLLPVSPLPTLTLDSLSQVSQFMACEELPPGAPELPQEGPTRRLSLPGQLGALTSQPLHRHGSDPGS
Out of some 310,000 compounds screened, about 2,200 (0.71%) showed an effect of 50% or more. The effect is printed as a negative number. This is one part of a sample in which strong results are shown more often than they occur.
MEASURED METRIC: hERG current change (%, negative = inhibition) at 1uM (%)
// note: answer is a bare numeric in %

Answer with the recorded hERG current change (%, negative = inhibition) at 1uM of Cn1nc(C(=O)NCCCN2CCCCC2)c2c1-c1ccccc1SC2 only.
-24.8

Consider the molecule O=C(CN1CCN(C(=O)c2c(F)cccc2F)CC1)Nc1ccccc1C(F)(F)F . State its measured hERG current change (%, negative = inhibition) at 1uM.
3.09

Give hERG current change (%, negative = inhibition) at 1uM for the following molecule: OC(COC(c1ccccc1)c1ccccc1)CN1CCN(c2ccccn2)CC1 (stereo not drawn)
-73.5

Please give the documented hERG current change (%, negative = inhibition) at 1uM of Cc1oc(-c2ccccc2F)nc1CN1CCC(C(=O)NCCC2=CCCCC2)CC1
-51.1

Please give measured hERG current change (%, negative = inhibition) at 1uM of the following entry: COc1ccc(N2CCN(C(=O)C3CCCN(S(=O)(=O)c4cccc5cccnc45)C3)CC2)cc1 (stereo not drawn)
5.91

State its hERG current change (%, negative = inhibition) at 1uM for this molecule: CN(C)C(=O)c1cc(C(=O)c2ccc(F)cc2C(F)(F)F)c[nH]1
14.3

Please give the documented hERG current change (%, negative = inhibition) at 1uM of CC1CCCCN1CCCNC(=O)c1nn(C)c2c1CSc1ccccc1-2 (stereo not drawn)
-23.4

Retrieve hERG current change (%, negative = inhibition) at 1uM measured for Cc1ccccc1-c1nc(CN2CCC(C(=O)NCCC3=CCCCC3)CC2)c(C)o1 and print it.
-32

Kindly indicate its recorded hERG current change (%, negative = inhibition) at 1uM. Item: CCC(=O)NC(=S)Nc1ccc(NC(=O)COc2ccccc2)cc1
19.7

Specify reported hERG current change (%, negative = inhibition) at 1uM for the molecule shown: Cc1cccc(NC(=O)CN2CCN(C(=O)c3cccc(-n4cnnn4)c3)CC2)c1C
-11.9

Give reported hERG current change (%, negative = inhibition) at 1uM value for Cc1ccc(NC(=O)N(Cc2nc3ccccc3c(=O)[nH]2)Cc2cccs2)cc1
5.74

// fetch hERG current change (%, negative = inhibition) at 1uM given entry COc1ccc(N2CCN(C(=O)C3CCCN(S(=O)(=O)c4ccc(F)cc4)C3)CC2)cc1 (stereo not drawn)
-7.16

Kindly indicate its recorded hERG current change (%, negative = inhibition) at 1uM. Item: O=C(C1CCCN(S(=O)(=O)c2cccc3cccnc23)C1)N1CCN(c2ccc(F)cc2)CC1 (stereo not drawn)
-50.1

Retrieve hERG current change (%, negative = inhibition) at 1uM measured for O=C(COc1ccc2ccccc2c1)N1CCN(C(=O)c2ccc([N+](=O)[O-])cc2)CC1 and print it.
-69.3

Name the recorded hERG current change (%, negative = inhibition) at 1uM of the molecule listed here: O=C(CN1CCCCC1)Nc1ccccc1Cl
13.9

Input O=C(COc1ccccc1)N1CCN(C(=O)c2ccc([N+](=O)[O-])cc2)CC1 , output reported hERG current change (%, negative = inhibition) at 1uM.
-19

Return hERG current change (%, negative = inhibition) at 1uM for the following molecule: CC1CCCN(CCCNC(=O)c2nn(C)c3c2CSc2ccccc2-3)C1 (stereo not drawn)
-66.2

State, in one line, measured hERG current change (%, negative = inhibition) at 1uM of O=C(C1CCCN(S(=O)(=O)c2cccc3cccnc23)C1)N1CCN(c2ccccc2F)CC1 (stereo not drawn)
-27.5

Report hERG current change (%, negative = inhibition) at 1uM, nothing else, for this molecule: O=C(CN1CCN(C(=O)c2cccc(-n3cnnn3)c2)CC1)Nc1ccccc1Cl
-92.9

Output measured hERG current change (%, negative = inhibition) at 1uM for this item: CCCCCOc1ccc(/C=C/c2c([N+](=O)[O-])c(=O)n(C)c(=O)n2C)cc1
12.2

Determine from records and report hERG current change (%, negative = inhibition) at 1uM for CCOc1ccccc1NC(=O)CSc1nnc(Cc2cccn2C)n1-c1ccc(F)cc1
-8.2

Provide one value: measured hERG current change (%, negative = inhibition) at 1uM of COc1ccc(OCC(=O)N2CCN(C(=O)c3ccc([N+](=O)[O-])cc3)CC2)cc1
-43.2

Note hERG current change (%, negative = inhibition) at 1uM for the molecule shown: Cc1cc(C(=O)N/N=C/c2cccc(Cl)c2Cl)no1
3.36

Input COc1ccc2nc3ccccc3nc2c1NC(=O)c1ccccc1Cl , output reported hERG current change (%, negative = inhibition) at 1uM.
-1.38

Specify measured hERG current change (%, negative = inhibition) at 1uM for C=CC[C@@H](C)CC(=O)C(CCCN=[N+]=[N-])SOOc1ccccc1 (stereo partly drawn) .
11.2

Answer with reported hERG current change (%, negative = inhibition) at 1uM of Cc1nc2ccc([N+](=O)[O-])cc2c(=O)n1Cc1ccc(Cl)cc1
10.5

Name the recorded hERG current change (%, negative = inhibition) at 1uM of the molecule listed here: O=C(C1CCCN1S(=O)(=O)c1cccc2nsnc12)N1CCN(c2ccccc2)CC1 (stereo not drawn)
-1.72
